# target-or-test-system: Btbc1 (bovine heart mitochondrial cyt bc1, Complex III) (Bos taurus, UniProt P00157+P13272)
# protocol: Inhibition of bovine heart mitochondrial cyt bc1 activity
# Type: biochemical
# setup-conditions: IC50, incubation time 5 minutes; cyt c reduction
property-label: IC50

# compound, IC50
data = [
    ("C/C=C(C)/C=C/C=C/[C@H](OC)[C@@H](C)[C@@H](OC)[C@@H](C)CCc1oc2c(O)c(OC)cc(OC)c2c(=O)c1C [stigmatellin]", "1 nM"),
]

Any idea what its IC50 is? The compound is O=C1C(O)=C([C@H]2CC[C@H](c3ccc(Cl)cc3)CC2)C(=O)c2ccccc21 [atovaquone]
2630 nM
